Record form. Attribute: IC50. Fill in for each entry.
# Assay Target: RON (Homo sapiens, UniProt Q04912)
# Sequence (Q04912 25-1400, species assumed): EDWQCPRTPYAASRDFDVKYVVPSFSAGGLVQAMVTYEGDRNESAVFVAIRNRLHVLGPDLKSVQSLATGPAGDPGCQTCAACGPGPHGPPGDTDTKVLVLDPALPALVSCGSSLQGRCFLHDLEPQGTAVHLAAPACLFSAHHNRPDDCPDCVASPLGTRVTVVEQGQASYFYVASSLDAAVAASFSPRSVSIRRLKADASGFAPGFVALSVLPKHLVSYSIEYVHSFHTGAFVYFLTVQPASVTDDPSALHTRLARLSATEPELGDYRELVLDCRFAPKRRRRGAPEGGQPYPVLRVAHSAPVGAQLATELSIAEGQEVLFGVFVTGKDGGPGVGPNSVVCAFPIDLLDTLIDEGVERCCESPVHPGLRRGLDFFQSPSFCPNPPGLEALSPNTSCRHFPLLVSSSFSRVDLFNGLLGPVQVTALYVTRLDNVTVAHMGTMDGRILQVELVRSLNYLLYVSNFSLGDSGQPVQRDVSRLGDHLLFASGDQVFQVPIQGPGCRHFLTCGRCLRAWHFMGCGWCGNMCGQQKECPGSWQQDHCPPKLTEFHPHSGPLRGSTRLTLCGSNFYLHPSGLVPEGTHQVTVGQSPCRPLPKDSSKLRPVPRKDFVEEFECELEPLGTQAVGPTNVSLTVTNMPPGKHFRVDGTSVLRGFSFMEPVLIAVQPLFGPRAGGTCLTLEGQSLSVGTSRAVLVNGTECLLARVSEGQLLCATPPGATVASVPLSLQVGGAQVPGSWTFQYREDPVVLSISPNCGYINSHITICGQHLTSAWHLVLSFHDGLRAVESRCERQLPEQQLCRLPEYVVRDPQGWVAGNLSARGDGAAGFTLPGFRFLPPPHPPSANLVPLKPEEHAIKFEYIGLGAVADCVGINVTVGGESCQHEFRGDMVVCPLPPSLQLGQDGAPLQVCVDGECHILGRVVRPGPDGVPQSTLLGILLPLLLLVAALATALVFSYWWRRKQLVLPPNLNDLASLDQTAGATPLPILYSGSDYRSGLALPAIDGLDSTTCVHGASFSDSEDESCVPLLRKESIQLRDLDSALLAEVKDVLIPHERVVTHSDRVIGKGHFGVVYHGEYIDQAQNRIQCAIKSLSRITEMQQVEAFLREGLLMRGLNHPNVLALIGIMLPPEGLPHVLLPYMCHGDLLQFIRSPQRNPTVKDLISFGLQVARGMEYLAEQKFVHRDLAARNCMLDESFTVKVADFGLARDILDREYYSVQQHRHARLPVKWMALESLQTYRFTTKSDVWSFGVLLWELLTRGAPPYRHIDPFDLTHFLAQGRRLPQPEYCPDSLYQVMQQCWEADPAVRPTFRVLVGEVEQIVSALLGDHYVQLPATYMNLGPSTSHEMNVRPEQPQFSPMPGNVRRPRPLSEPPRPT

Q: Record request: IC50 value, item CC(C)(C)n1ncc(C(=O)Nc2ccc(Oc3ccnc(N)c3Cl)c(F)c2)c1C(F)(F)F [Example 17]
Ans: 50 to 500 nM

Q: So what does the record say about IC50 for Nc1nccc(Oc2ccc(NC(=O)c3cnn(-c4ccccc4)c3C(F)(F)F)cc2F)c1N [Example 28] ?
Ans: 50 to 500 nM

Q: Fill blank: measured IC50 of the compound Nc1ncnc(Oc2ccc(NC(=O)c3cnn(C4CCCOC4)c3C(F)(F)F)cc2F)c1Cl (centres unmarked) [Example 50] is ____.
Ans: 500 to 5000 nM

Q: Look up IC50 for this compound: Nc1nccc(Oc2ccc(NC(=O)c3cnn(-c4ccccc4)c3C(F)(F)F)cc2F)c1I [Example 43]
Ans: < 50 nM

Q: Please look up its IC50: CCOC(=O)Nc1c(Oc2ccc(NC(=O)c3cnn(-c4ccccc4)c3C(F)(F)F)cc2F)ccnc1N [Example 34]
Ans: 50 to 500 nM

Q: Reported IC50 for Nc1nccc(Oc2ccc(NC(=O)c3cnn(-c4ccc(F)cc4)c3C(F)(F)F)cc2F)c1Cl [Example 11] : what is it?
Ans: 500 to 5000 nM

Q: So what does the record say about IC50 for Nc1nccc(Oc2ccc(NC(=O)c3cnn(-c4ccccc4)c3C(F)(F)F)c(F)c2)c1Cl [Example 45] ?
Ans: 50 to 500 nM

Q: Reported IC50, compound Cc1c(C(=O)Nc2ccc(Oc3ncnc(N)c3Cl)c(F)c2)nnn1-c1ccccc1 [Example 55] : ____
Ans: > 5000 nM

Q: For Nc1ncnc(Oc2ccc(NC(=O)c3ccn(-c4ccccc4)n3)cc2F)c1Cl [Example 53] , what is its reported IC50?
Ans: 500 to 5000 nM

Q: So what's the measured IC50 for this one? Nc1ncnc(Oc2ccc(NC(=O)c3cnn(-c4ccccc4)c3-c3ccccc3)cc2F)c1Cl [Example 59]
Ans: 50 to 500 nM

Q: Could you tell me which IC50 is on file for Nc1nccc(Oc2ccc(NC(=O)c3cnn(-c4c(F)cccc4F)c3C(F)(F)F)cc2F)c1Cl [Example 37] ?
Ans: < 50 nM

Q: Need IC50 of Nc1nccc(Oc2ccc(NC(=O)c3cnn(-c4ccccc4)c3)cc2F)c1Cl [Example 7] , thanks.
Ans: 500 to 5000 nM

Q: What IC50 value was documented for this compound, Nc1nccc(Oc2ccc(NC(=O)c3cnc(-c4ccccc4)s3)cc2F)c1Cl [Example 30] ?
Ans: 50 to 500 nM

Q: # get_value(readout='IC50', item= Nc1nccc(Oc2ccc(NC(=O)c3ccn(-c4ccccc4)n3)cc2F)c1Cl [Example 39] )
Ans: 500 to 5000 nM

Q: Which IC50 is listed for Nc1ncnc(Oc2ccc(NC(=O)c3cnn(-c4ccccc4F)c3C(F)(F)F)cc2F)c1Cl [Example 52] ?
Ans: 50 to 500 nM

Q: Any idea what its IC50 is? The compound is Nc1nccc(Oc2ccc(NC(=O)c3cnn(-c4ccccc4)c3-c3ccccc3)cc2F)c1Cl [Example 19]
Ans: 50 to 500 nM

Q: Recorded IC50 for O=C(Nc1ccc(Oc2ncnc(NC3CC3)c2Cl)c(F)c1)c1cnn(-c2ccccc2)c1C(F)(F)F [Example 62] , please?
Ans: > 5000 nM

Q: What does the data say about its IC50? Entry: Nc1ncnc(Oc2ccc(NC(=O)c3cnn(C4CCCCC4)c3C(F)(F)F)cc2F)c1Cl [Example 51]
Ans: 50 to 500 nM

Q: Request the reported IC50 associated with Nc1nccc(Oc2ccc(NC(=O)c3cnn(-c4ccccc4)c3F)cc2F)c1Cl [Example 20]
Ans: 50 to 500 nM

Q: Return reported IC50; argument: O=C(Nc1ccc(Oc2ccnc(NC(=O)C3CC3)c2)c(F)c1)c1ncn(-c2ccccc2)c1C(F)(F)F [Example 26]
Ans: 50 to 500 nM

Q: # input compound: Nc1ncnc(Oc2ccc(NC(=O)c3cnn(-c4ccccc4)c3C(F)(F)F)cc2F)c1Cl [Example 46] ; wanted: its IC50
Ans: 50 to 500 nM

Q: If you can, please state the reported IC50 value of Nc1cc(Oc2ccc(NC(=O)c3ncn(-c4ccccc4)c3C(F)(F)F)cc2F)ccn1 [Example 25] .
Ans: 50 to 500 nM

Q: // IC50 lookup, key: Nc1nccc(Oc2ccc(NC(=O)c3cnn(Cc4ccccc4)c3C(F)(F)F)cc2F)c1Cl [Example 13]
Ans: 500 to 5000 nM

Q: Fill in: IC50 of Nc1nccc(Oc2ccc(NC(=O)c3ncn(-c4ccccc4)c3C(F)(F)F)cc2F)c1Cl [Example 1] is ___
Ans: < 50 nM

Q: State the recorded IC50 for this entry: Cc1nn(-c2ccccc2)c(C)c1C(=O)Nc1ccc(Oc2ncnc(N)c2Cl)c(F)c1 [Example 48]
Ans: 50 to 500 nM

Q: Dear colleague, I am looking for the recorded IC50 of the following compound: CCc1c(C(=O)Nc2ccc(Oc3ncnc(N)c3Cl)c(F)c2)cnn1-c1ccccc1 [Example 47]
Ans: 50 to 500 nM

Q: # lookup: IC50 of Nc1nccc(Oc2ccc(NC(=O)c3cn(-c4ccccc4)nn3)cc2F)c1Cl [Example 40]
Ans: > 5000 nM

Q: What IC50 value was documented for this compound, CCOC(=O)N(c1c(Oc2ccc(NC(=O)c3cnn(-c4ccccc4)c3CC)cc2F)ccnc1N)C(C)C [Example 35] ?
Ans: 500 to 5000 nM

Q: Tell me the measured IC50 of Nc1nccc(Oc2ccc(NC(=O)c3onc(-c4ccccc4)c3C(F)(F)F)cc2F)c1Cl [Example 38] , please.
Ans: 50 to 500 nM

Q: Which IC50 reading was recorded for the compound Nc1ncnc(Oc2ccc(NC(=O)c3cnn(-c4ccccc4)c3)cc2F)c1Cl [Example 57] ?
Ans: > 5000 nM

Q: Consider the compound Nc1cc(Oc2ccc(NC(=O)c3cnn(-c4ccccc4)c3C(F)(F)F)cc2F)ccn1 [Example 44] and give its measured IC50.
Ans: 50 to 500 nM

Q: For the compound shown here, Nc1nccc(Oc2ccc(NC(=O)c3cnn(-c4ccccc4)c3N)cc2F)c1Cl [Example 10] , give the reported IC50.
Ans: 500 to 5000 nM
